Recorded values, source the supplement of paper PMC12645437.

- TARGET_OF_ASSAY: T1, CRBN, Q96SW2;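 further: pooled lentiviral library of zinc finger degron-EGFP fusions in mCherry-positive Jurkat cells, FACS-sorted after compound exposure, with degron abundance counted by next-generation sequencing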
- T1 chain: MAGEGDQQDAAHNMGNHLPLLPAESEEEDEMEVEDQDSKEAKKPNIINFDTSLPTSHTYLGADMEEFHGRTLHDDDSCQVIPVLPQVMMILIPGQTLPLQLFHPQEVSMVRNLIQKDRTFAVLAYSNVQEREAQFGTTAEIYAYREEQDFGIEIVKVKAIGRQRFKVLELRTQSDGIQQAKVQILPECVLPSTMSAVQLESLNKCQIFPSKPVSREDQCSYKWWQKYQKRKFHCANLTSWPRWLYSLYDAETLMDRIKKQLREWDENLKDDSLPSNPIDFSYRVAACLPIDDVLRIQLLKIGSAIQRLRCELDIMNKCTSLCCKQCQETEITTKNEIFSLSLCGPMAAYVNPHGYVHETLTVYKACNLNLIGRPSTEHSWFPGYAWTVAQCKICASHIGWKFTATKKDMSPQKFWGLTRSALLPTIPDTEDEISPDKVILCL
- METHOD: log2 fold change of degron read counts, EGFP-low vs EGFP+ sorted cells (limma voom), compound-induced degradation; higher = more compound-induced degradation of the degron-EGFP fusion; degrons are variants of IKZF1/3 zinc finger 2; compound dose not given here
- CONDITION_PARAMETERS: Jurkat; 18 h; compound: compound 22 (5-morpholino-thalidomide)
Whole data set: some 8,300 sequences, median “log2 fold change of degron read counts, EGFP-low vs EGFP+ sorted cells (limma voom), compound-induced degradation” near -1.1, cut for the highest 2% near 3.2. Shown is part of a subset that was picked to be rich in the highest values.
READOUT_TYPE: log2 fold change of degron read counts
Give the figure by itself; no unit, no explanation.

Data request: Suppose we examine the sequence FCCNVCGAIFTQKGNLLRHIKL [46F_47C_49N_50V_52G_53A_54I_55F_67L_, Q9UKT9] ; what log2 fold change of degron read counts value has been reported?
Data returned: -0.605

Data request: LRCPICGFQCTQKGNLLRHIKL [46L_47R_49P_50I_52G_53F_54Q_55C_67L_, Q9UKT9] , same question.
Data returned: 0.186

Data request: FACEICGAYFTQKGNLLRHIKL [46F_47A_49E_50I_52G_53A_54Y_55F_67L_, Q9UKT9] , same question.
Data returned: 1.39

Data request: LICPICGFQCTQKGNLLRHIKL [46L_47I_49P_50I_52G_53F_54Q_55C_67L_, Q9UKT9] , same question.
Data returned: 2.57

Data request: LDCPICGFQCTQKGNLLRHIKL [46L_47D_49P_50I_52G_53F_54Q_55C_67L_, Q9UKT9] , same question.
Data returned: 0.239

Data request: FWCEICGAYFTQKGNLLRHIKL [46F_47W_49E_50I_52G_53A_54Y_55F_67L_, Q9UKT9] , same question.
Data returned: 2.92

Data request: FMCEVCGACFTQKGNLLRHIKL [46F_47M_49E_50V_52G_53A_54C_55F_67L_, Q9UKT9] , same question.
Data returned: 0.00255

Data request: FDCPICGRRFTQKGNLLRHIKL [46F_47D_49P_50I_52G_53R_54R_55F_67L_, Q9UKT9] , same question.
Data returned: 0.908

Data request: FYCEVCGACFTQKGNLLRHIKL [46F_47Y_49E_50V_52G_53A_54C_55F_67L_, Q9UKT9] , same question.
Data returned: 3.85

Data request: FQCEVCGACFTQKGNLLRHIKL [46F_47Q_49E_50V_52G_53A_54C_55F_67L_, Q9UKT9] , same question.
Data returned: 2.69

Data request: FQCNICGAKFTQKGNLLRHIKL [46F_47Q_49N_50I_52G_53A_54K_55F_67L_, Q9UKT9] , same question.
Data returned: 1.71

Data request: FSCDQCGAEFTQKGNLLRHIKL [46F_47S_49D_50Q_52G_53A_54E_55F_67L_, Q9UKT9] , same question.
Data returned: -3.41

Data request: FGCEICGAYFTQKGNLLRHIKL [46F_47G_49E_50I_52G_53A_54Y_55F_67L_, Q9UKT9] , same question.
Data returned: 0.231

Data request: FSCPICGAKFTQKGNLLRHIKL [46F_47S_49P_50I_52G_53A_54K_55F_67L_, Q9UKT9] , same question.
Data returned: 1.67

Data request: FYCEICGREFTQKGNLLRHIKL [46F_47Y_49E_50I_52G_53R_54E_55F_67L_, Q9UKT9] , same question.
Data returned: -1.07

Data request: FGCPICGAKFTQKGNLLRHIKL [46F_47G_49P_50I_52G_53A_54K_55F_67L_, Q9UKT9] , same question.
Data returned: 1.76

Data request: FCCPICGAKFTQKGNLLRHIKL [46F_47C_49P_50I_52G_53A_54K_55F_67L_, Q9UKT9] , same question.
Data returned: 2.05

Data request: FNCPICGAKFTQKGNLLRHIKL [46F_47N_49P_50I_52G_53A_54K_55F_67L_, Q9UKT9] , same question.
Data returned: 0.6

Data request: FRCEICGRIFTQKGNLLRHIKL [46F_47R_49E_50I_52G_53R_54I_55F_67L_, Q9UKT9] , same question.
Data returned: -2.31

Data request: FSCEVCGACFTQKGNLLRHIKL [46F_47S_49E_50V_52G_53A_54C_55F_67L_, Q9UKT9] , same question.
Data returned: 2.28

Data request: LCCPICGFQCTQKGNLLRHIKL [46L_47C_49P_50I_52G_53F_54Q_55C_67L_, Q9UKT9] , same question.
Data returned: 2.42

Data request: LWCPICGFQCTQKGNLLRHIKL [46L_47W_49P_50I_52G_53F_54Q_55C_67L_, Q9UKT9] , same question.
Data returned: 3.52

Data request: FTCDVCGARFTQKGNLLRHIKL [46F_47T_49D_50V_52G_53A_54R_55F_67L_, Q9UKT9] , same question.
Data returned: 1.8

Data request: LQCPICGFQCTQKGNLLRHIKL [46L_47Q_49P_50I_52G_53F_54Q_55C_67L_, Q9UKT9] , same question.
Data returned: 1.71

Data request: FECEICGRSFTQKGNLLRHIKL [46F_47E_49E_50I_52G_53R_54S_55F_67L_, Q9UKT9] , same question.
Data returned: -3.16

Data request: FRCEICGAYFTQKGNLLRHIKL [46F_47R_49E_50I_52G_53A_54Y_55F_67L_, Q9UKT9] , same question.
Data returned: -0.721

Data request: LMCPICGFQCTQKGNLLRHIKL [46L_47M_49P_50I_52G_53F_54Q_55C_67L_, Q9UKT9] , same question.
Data returned: 1.65

Data request: FTCEVCGACFTQKGNLLRHIKL [46F_47T_49E_50V_52G_53A_54C_55F_67L_, Q9UKT9] , same question.
Data returned: 2.52

Data request: FMCPICGAKFTQKGNLLRHIKL [46F_47M_49P_50I_52G_53A_54K_55F_67L_, Q9UKT9] , same question.
Data returned: 0.0581
